Biological target: Short transient receptor potential channel 4 (Mus musculus)
Sequence (Q9QUQ5 whole entry): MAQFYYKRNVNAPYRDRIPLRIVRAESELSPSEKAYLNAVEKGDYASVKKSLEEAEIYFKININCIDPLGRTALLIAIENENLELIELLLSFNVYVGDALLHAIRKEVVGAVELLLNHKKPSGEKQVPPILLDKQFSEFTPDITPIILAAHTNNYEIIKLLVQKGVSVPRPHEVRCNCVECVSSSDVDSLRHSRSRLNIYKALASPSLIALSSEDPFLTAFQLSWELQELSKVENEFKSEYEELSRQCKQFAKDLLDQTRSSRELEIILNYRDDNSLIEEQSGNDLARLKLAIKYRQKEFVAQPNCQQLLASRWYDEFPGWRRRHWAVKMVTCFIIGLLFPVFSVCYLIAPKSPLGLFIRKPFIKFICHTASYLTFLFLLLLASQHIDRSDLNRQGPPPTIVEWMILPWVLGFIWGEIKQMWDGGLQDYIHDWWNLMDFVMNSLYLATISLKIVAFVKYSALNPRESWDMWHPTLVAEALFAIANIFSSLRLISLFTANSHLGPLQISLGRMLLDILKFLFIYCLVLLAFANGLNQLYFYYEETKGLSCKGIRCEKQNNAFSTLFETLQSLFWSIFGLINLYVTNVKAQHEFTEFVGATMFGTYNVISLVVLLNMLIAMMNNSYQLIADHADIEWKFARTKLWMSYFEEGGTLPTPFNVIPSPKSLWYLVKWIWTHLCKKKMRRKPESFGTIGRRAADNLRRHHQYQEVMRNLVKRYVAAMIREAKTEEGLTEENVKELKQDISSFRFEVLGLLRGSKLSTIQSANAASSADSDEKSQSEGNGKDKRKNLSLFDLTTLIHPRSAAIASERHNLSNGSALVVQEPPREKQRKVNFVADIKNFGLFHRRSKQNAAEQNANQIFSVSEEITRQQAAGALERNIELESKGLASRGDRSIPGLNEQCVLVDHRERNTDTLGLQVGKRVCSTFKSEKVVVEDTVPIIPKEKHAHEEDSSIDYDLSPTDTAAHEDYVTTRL
Test: mouse TRPC4 channel activators, dose response, cell-based, HEK293 TRPC4/mu-opioid, Fluo-4 calcium (AID 434937)
Assay type: functional
Activity calls are given as the source filed them.
parameter: EC50

> print(dat)
                                   molecule     readout.value
1  COc1cc2c(cc1OC)C(C)N(C(=O)C(NC(=O)c1ccccc1)C(C)C)CC2 (centres undefined)  5.96 µM (active)

Prompt line: Provide measured EC50 value, entry: CCOC(=O)C1(CC2CCCCO2)CCN(Cc2c(C)cc(C)cc2-n2cccn2)CC1 (centres undefined)
Response line: 0.0293 µM (active)

Prompt line: Provide measured EC50 value, entry: "Cc1c(CN2CCC(n3nccc3NC(=O)C3CC3)CC2)[nH]c2ccccc12"
Response line: 0.596 µM (active)

Prompt line: Provide measured EC50 value, entry: COc1ccc(/C=C/C(=O)Nc2ccccc2C(=O)NCC(c2ccc(OC)cc2)N(C)C)cc1 (centres undefined)
Response line: 0.421 µM (active)

====

Biological target: Voltage-gated N-type calcium channel alpha-1B subunit/Amyloid beta A4 precursor protein-binding family A member 1 (Homo sapiens, UniProt Q00975+Q02410)
Sequence (Q00975 whole entry): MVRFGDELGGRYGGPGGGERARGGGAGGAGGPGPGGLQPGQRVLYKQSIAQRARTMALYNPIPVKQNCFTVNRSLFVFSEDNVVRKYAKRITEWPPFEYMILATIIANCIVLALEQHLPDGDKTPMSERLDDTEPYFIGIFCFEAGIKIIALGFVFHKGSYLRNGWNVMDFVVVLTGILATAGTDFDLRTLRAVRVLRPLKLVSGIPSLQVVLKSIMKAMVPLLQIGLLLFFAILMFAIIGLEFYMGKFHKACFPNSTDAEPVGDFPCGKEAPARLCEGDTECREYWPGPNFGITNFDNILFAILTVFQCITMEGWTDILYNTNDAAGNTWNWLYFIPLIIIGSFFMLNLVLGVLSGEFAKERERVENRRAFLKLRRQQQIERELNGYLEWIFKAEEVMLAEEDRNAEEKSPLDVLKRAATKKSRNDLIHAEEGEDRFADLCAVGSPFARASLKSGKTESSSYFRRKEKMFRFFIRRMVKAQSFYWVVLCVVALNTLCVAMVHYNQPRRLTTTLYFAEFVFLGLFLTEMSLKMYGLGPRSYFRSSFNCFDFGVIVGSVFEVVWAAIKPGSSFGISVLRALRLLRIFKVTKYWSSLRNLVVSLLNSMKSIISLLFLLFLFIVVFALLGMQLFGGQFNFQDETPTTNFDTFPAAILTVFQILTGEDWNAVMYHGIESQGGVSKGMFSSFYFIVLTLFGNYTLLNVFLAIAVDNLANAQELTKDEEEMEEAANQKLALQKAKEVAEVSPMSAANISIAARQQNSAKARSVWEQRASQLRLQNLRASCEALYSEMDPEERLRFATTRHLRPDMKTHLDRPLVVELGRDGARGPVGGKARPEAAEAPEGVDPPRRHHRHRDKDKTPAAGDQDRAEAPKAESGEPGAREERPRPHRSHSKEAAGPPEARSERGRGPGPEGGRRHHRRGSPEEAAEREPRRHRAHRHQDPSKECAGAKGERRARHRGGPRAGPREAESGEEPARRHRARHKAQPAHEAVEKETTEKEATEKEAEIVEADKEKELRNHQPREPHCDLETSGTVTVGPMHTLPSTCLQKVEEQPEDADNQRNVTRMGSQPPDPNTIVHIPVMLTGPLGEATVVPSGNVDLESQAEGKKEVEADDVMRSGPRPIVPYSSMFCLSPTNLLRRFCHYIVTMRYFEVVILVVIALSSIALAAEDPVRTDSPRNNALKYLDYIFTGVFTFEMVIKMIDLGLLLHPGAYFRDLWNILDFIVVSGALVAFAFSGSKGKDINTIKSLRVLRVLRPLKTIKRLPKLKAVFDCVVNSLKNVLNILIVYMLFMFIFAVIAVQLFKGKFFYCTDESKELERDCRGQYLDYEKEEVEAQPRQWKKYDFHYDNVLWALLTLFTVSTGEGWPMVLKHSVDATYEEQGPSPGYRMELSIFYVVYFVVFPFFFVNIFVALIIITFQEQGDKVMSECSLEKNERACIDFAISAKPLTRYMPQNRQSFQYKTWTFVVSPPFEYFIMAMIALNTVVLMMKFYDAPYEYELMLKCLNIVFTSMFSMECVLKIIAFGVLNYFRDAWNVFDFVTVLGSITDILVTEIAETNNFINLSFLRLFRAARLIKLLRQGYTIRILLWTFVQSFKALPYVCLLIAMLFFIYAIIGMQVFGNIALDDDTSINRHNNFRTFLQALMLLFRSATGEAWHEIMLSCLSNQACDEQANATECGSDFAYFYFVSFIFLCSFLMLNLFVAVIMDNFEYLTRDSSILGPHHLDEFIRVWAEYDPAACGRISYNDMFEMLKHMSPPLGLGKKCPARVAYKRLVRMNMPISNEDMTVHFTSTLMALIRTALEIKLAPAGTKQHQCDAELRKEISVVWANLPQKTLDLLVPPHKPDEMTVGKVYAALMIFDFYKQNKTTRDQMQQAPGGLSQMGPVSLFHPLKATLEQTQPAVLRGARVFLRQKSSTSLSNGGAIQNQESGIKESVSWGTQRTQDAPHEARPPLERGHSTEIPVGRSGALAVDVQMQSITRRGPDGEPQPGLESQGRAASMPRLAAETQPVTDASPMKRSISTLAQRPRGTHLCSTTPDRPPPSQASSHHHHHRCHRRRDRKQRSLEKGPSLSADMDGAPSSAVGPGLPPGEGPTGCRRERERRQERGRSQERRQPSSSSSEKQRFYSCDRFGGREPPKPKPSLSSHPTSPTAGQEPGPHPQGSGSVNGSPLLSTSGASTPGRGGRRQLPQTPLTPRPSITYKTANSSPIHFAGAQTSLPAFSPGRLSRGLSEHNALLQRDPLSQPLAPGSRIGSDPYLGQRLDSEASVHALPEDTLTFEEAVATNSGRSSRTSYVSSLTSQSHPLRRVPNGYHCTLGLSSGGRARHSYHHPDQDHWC
Sequence (Q02410 whole entry): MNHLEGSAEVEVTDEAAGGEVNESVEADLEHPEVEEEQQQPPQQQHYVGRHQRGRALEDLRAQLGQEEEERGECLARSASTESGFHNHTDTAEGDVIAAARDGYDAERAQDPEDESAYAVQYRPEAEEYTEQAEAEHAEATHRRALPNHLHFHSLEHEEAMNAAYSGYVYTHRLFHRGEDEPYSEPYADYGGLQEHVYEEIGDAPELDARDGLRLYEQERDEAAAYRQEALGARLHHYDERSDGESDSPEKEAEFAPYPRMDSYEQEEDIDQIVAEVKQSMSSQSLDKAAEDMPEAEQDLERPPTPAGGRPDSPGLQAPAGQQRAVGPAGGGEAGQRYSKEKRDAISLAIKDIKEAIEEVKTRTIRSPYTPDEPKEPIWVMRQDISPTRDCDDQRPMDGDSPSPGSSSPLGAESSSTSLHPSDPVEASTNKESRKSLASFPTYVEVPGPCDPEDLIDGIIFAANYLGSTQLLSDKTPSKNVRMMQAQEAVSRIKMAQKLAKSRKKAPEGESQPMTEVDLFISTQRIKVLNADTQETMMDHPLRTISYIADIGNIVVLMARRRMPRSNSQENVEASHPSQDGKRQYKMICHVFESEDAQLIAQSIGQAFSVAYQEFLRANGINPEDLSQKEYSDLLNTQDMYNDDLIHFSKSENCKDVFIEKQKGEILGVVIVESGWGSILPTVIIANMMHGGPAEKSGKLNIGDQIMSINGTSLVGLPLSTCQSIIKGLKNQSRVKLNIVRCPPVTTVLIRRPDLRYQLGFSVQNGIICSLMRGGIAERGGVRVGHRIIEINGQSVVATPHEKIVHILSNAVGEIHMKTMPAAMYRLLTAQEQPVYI
Assay type: protein assay
Active and inactive are the calls of the source.
parameter: IC50

Solved entries:
> print(dat)
                           smiles.structure     readout.value
1  O=C(O)CCN1C(=O)/C(=C2\C(=O)N(Cc3ccccc3Cl)c3ccccc32)SC1=S  9.81 µM (active)
2  CC(=O)Nc1ccc(NC(=O)c2cc(-c3ccc(C)c(C)c3O)[nH]n2)cc1  23.2 µM (active)
3  CCCCCCc1cc2cc(-c3nnc(-c4ccccc4)o3)c(=O)oc2cc1O  9.32 µM (active)
4    COC(=O)c1ccccc1NC(=O)c1cc(-c2ccco2)on1  13.7 µM (active)
5  Cc1cc(C)c2c(=O)n(CC(=O)NCCCN3CCOCC3)sc2n1  10.8 µM (active)

In the following, a different molecule is considered.
Prompt line: Provide measured IC50 value, entry: "O=C(O)c1ccc(Nc2nc(-c3cc4ccccc4oc3=O)cs2)cc1O"
Response line: 7.29 µM (active)
